protocol details: yeast display, Sf9 membrane polyspecificity reagent, FACS + sequencing; frameworks hold sequencing errors
parameter: polyreactivity (PSR sort gate)

QVQIVDSGGGLVQAGGSLRLSCAASGRIIRGYAMGWYRQAPGKERELVAAITFSGGSPYYADSVKGRFTISRDNAKNTVYLHMNSLKPEDTAVYYCAAAYGGSSYEYNYWGQGTQVTVSS
low polyreactivity
QVQLVESGVGFVQAGGSLRLSCAASGSTFGYYDMGWYRQAPGKERELVASIRSSGSTYYADSVKGRFTISRDNPKHTVYFQMNSLKPEDTAVYYCNTASLYHRWQGSWPKYDYWGQGTQVTVSS
high polyreactivity
QVQLVESGGGLVQAGGSLRLICAASGSIFTRNAMGWYRQAPGKEREFVAAISSSGVSTYYADSVKGRFTISRDNAKNTVYLQMISLKPEDTAVYYCAARWGTKSGRYDYWGQGTQVTVSS
high polyreactivity
QVQLVESGGGLVQAGGSLRLSCAASGSIFSFYAMGWYRQAPGKERELVAAISSSGGSTYYADSVKGRFTISRDNAKNTVYLKMNSLKPEDTAVYYCAARFAYGGGYWGQGTQVTVSS
high polyreactivity

Field: next sequence
Supply recorded polyreactivity (PSR sort gate) for QVQLVESGGGLVQAGGSLRLSCAASGIIFLYYAMGWYRQAPGKERELVAAISKSGGSTYYADSVKGRFTISRDNAKNTVYLQMNSLKPEDTAVYYCAARLWHLSYAGQGGDYWGQGTQVTVSS here.
low polyreactivity

====

protocol details: yeast display, Sf9 membrane polyspecificity reagent, FACS + sequencing; frameworks hold sequencing errors
parameter: polyreactivity (PSR sort gate)

QVQLVESGGGLVQAGGSLRLSCAASGYTFPRYTMGRYRQAPGKERELVAVIRRSGGTHYADSVKGRFTISRDNAKNTVYLLMYSLNPVDIAVYYCAVVSLLQNIPYGFWGQGTQVTVSS
high polyreactivity
QVQLVESGGGLVQSGGSLRISCAASGGIFKYNAMGWYTQAPGKERELVAAINYSGGRTYYADSVKGRFTISRDNAKNTVYLQMNSLKPEDTAVFYCNALTRGHTGQPYTYDYWGQGNQVTVSS
high polyreactivity
QVQLVESGGGLVQAGGSLRLSCAASGHIFFYYTMGWYRQAPGKERELVAGITIGGSTNYADSVKGRFTISRDNAKNTVYLEMNSLKPEDTAVYYCNVVKYVFFYSYWEYYYWGQGTQVTVSS
low polyreactivity
QVQLVESGGGLVQAGGSLRLSCAASGSTFGANAMGWYRQAPGKERELVAVITWNDGSTYYADSVKGRFTISRDNAKNTVYLQMNSLKPEDTAVYYCAAEYADSWSAFDWNYYYWVQGTQVTVSS
high polyreactivity

Supply recorded polyreactivity (PSR sort gate) for QVQLVESGGGLVQAGGSLRLSCAASGSIFVLYAMGWYRQAPGKERELVATITWSGDSTYYADSVKGRFTISRDNAKNTVYLQMNSLKPEDTAVYYCNKRIWDQYDWGQGTQVTVSS here.
low polyreactivity

====

protocol details: yeast display, Sf9 membrane polyspecificity reagent, FACS + sequencing; frameworks hold sequencing errors
parameter: polyreactivity (PSR sort gate)

Answered cases to consult:
QVQLVESGGGLVQAGGSLRLSCAASGRTFWDYGMGWYRQAPGKERELVATISGNGGDTYYADSVKGRFTISRDNAKNTVYLQMNSLKPEDTAVYYCAAAWPSTGLLYVLGYSGYGYWGQGTQVTVSS
low polyreactivity
QVQLVESGGGLVQAGGSLRLSCAASGMTFSKYVMGWYRQAPGKERELVAAITWSGGRTYYADSVKGRFTISRDNAKNTVYLQMNSLKPEDTAVYYCNSKLKGLGYEYDYWGQGTQVTVSS
high polyreactivity
QVQLVESGGGLVQAGGSLRLSCAASGSIFRGYAMGWYRQAPGKERELVAVIRRTSGSTYYADSVKGRFTISRDNAKNTVYLQMNSLKPEDTAVYYCNTLRHSSYPSYGYWGQGTQVTVSS
high polyreactivity
QVQLVESGGGLVQAGGSLRLSCAASGSILTDNAMGWYRQAPGKERELVASITGSGGSTYYADSVKGRFTISRDNAKNSVYLQMNSLKRVDTAVYYCAASYRLRYGYWGQGTQVTVSS
high polyreactivity

Supply recorded polyreactivity (PSR sort gate) for QVQLVESGGGLVQAGGSLRLSCAASGSTLHYNAMGWYRQAPGKERELVARISWSGGSTYYADSVKGRFTISRDTAKNTVYLQMNSLKPEDTAVYYCAAPRYGHYTWLYDYWGQGTQVTVSS here.
low polyreactivity

Supply recorded polyreactivity (PSR sort gate) for QVQLVESGGGLVQAGGSLRLSCAASGRIFWKYTMGWYRQAPGKERELVAAIRSGGGSTYYADSVKGRFTISRDNAKNTVYLQLNSLKPEDTAFYYCAAEPSQRYPWSGYDYWGQGTQVTVSS here.
low polyreactivity

Supply recorded polyreactivity (PSR sort gate) for QVQLQESGGGLVQAGGSMRLSCAPRGSIYELRPMGWNRQAPGKESELVAGISTGGSTNYADCVIGRFTISRDNAKYSVYLQMNSLKPEDSAVYYCAAASYGEGTYDYWGQGTQVTVRS here.
high polyreactivity

Supply recorded polyreactivity (PSR sort gate) for QVQLVESGGGLVQAGGSLRLICAASGIILYSYAMGWYRQAPGKERELVAAISRRGTSTFYADSVKGRFTISRDNAKNTVYLQMNSLKPEDTAVYYCAADFYTNHYDYWGQGTQVTVSS here.
high polyreactivity

Supply recorded polyreactivity (PSR sort gate) for QFQLVESGGGLVQAGGSLRLSCAASGSIFYTYVMGWYRQAPGKERELVAVISWSSTSTYYADSVKGRFTISRDNAKNTVYLQMNSLKPEDTAVYYCAAGVHRYRPGHGYDDGGYYWGQGTQVTVSS here.
low polyreactivity
